Hey, just so you know, these numbers are from paper PMC3219716.

Molecular target: T1, CT-Ler (Escherichia coli EHEC O157:H7, UniProt Q7DB51 70-116)
T1 chain: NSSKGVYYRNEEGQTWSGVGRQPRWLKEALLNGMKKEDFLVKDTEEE
Test: fluorescence anisotropy; Anisotropy: 40 mM HEPES pH 7.5, 60 mM K-glutamate, 0.01% NaN3, 20 C; EMSA: 15 mM Na-phosphate pH 7.5, 100 mM NaCl, 0.01% NaN3, room temperature; NMR structure:
Conditions: protein: recombinant; tags: N-terminal His6 (pHAT2); blunt, self-complementary
Please provide measured Kd for the entries that follow.
The figure you give is taken to be in µM; do not add the unit.

# binder AATT 10-mer (dsDNA) DNA 1: CGCAATTGCG DNA 2: CGCAATTGCG ; its Kd = 3.45

# binder AATTC 10-mer (dsDNA) DNA 1: CGGAATTCCG DNA 2: CGGAATTCCG ; its Kd = 4.14

# binder TTAA 10-mer (dsDNA) DNA 1: CGCTTAAGCG DNA 2: CGCTTAAGCG ; its Kd = 22.8

# binder TATA 10-mer (dsDNA) DNA 1: CGCTATAGCG DNA 2: CGCTATAGCG ; its Kd = 16.6
